Molecular target: SUMO-activating enzyme (Homo sapiens, UniProt Q9UBT2)
Sequence (Q9UBE0 whole entry): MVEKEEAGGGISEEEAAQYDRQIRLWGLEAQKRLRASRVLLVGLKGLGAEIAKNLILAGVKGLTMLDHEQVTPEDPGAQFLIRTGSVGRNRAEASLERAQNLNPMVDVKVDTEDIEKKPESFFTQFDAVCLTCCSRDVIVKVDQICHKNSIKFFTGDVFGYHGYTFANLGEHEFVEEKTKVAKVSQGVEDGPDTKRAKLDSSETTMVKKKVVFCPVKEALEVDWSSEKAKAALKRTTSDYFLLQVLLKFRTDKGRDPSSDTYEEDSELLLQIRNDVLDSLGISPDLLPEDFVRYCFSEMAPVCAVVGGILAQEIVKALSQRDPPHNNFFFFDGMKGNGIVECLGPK
Sequence (Q9UBT2 whole entry): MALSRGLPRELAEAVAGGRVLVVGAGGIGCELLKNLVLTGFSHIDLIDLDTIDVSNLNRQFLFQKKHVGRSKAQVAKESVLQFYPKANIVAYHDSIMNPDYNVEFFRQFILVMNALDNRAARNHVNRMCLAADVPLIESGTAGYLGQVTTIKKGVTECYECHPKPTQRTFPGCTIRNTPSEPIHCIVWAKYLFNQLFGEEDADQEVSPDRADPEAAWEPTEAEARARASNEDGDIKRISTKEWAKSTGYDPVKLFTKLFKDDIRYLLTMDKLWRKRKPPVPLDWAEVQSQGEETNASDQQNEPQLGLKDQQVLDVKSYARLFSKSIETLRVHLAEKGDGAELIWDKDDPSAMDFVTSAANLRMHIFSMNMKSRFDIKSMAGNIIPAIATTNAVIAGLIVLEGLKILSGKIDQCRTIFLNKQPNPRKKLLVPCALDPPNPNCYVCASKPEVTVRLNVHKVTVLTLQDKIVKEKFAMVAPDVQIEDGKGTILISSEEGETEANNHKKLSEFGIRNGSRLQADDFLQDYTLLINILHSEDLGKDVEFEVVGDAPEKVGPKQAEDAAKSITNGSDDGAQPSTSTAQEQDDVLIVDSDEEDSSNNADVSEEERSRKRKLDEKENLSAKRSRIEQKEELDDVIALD
Experiment: Inhibition of recombinant SAE (unknown origin) assessed as reduction in transfer of SUMO1 to UBC9 using SUMO1 as a substrate in presence of ATP at Km concentration by HTRF assay
Format: protein-complex assay
Reported pIC50 is given for each of the following molecules.
Convention used: pIC50 is expressed as -log10 of the molar concentration.

Completed entries (count: 3):
1) N#Cc1sc(C(=O)c2cncnc2N[C@@H]2C[C@H](COS(N)(=O)=O)[C@@H](O)C2)cc1Cc1cccc(Cl)c1 : 7.72
2) NS(=O)(=O)OC[C@H]1C[C@@H](Nc2ncncc2C(=O)c2cnn(Cc3ccccc3)c2)C[C@@H]1O : 8.20
3) NS(=O)(=O)OC[C@H]1C[C@@H](Nc2ncncc2C(=O)c2ccn(Cc3cccc(F)c3)n2)C[C@@H]1O : 8.54

In: Enter recorded pIC50 with SUMO-activating enzyme (Homo sapiens, UniProt Q9UBT2) for NS(=O)(=O)OC[C@H]1C[C@@H](Nc2ncncc2C(=O)c2ccn(CC3CCCCC3)n2)C[C@@H]1O here.
Out: 8.09

----------
Biological target: SUMO-activating enzyme (Homo sapiens)
Assay: Inhibition of recombinant SAE (unknown origin) assessed as reduction in transfer of SUMO1 to UBC9 using SUMO1 as a substrate in presence of ATP at Km concentration by HTRF assay
Format: protein-complex assay
Measurement Kind: pIC50
Convention used: pIC50 is expressed as -log10 of the molar concentration.

1) Cc1sc(C(=O)c2cncnc2N[C@@H]2C[C@H](COS(N)(=O)=O)[C@@H](O)C2)cc1C1OCCc2ccc(Cl)cc21 (stereo in doubt; 47) : 7.96
2) Cc1cccc(Cn2ccc(C(=O)c3cncnc3N[C@@H]3C[C@H](COS(N)(=O)=O)[C@@H](O)C3)n2)c1 : 8.77
3) NS(=O)(=O)OC[C@H]1C[C@@H](Nc2ncncc2C(=O)c2ccn(Cc3ccc(Cl)o3)n2)C[C@@H]1O : 8.96
4) NS(=O)(=O)OC[C@H]1C[C@@H](Nc2ncncc2C(=O)c2cc(C3NCCc4ccc(Cl)cc43)c(Cl)s2)C[C@@H]1O (some centres not stated) : 9.40
5) NS(=O)(=O)OC[C@H]1C[C@@H](Nc2ncncc2C(=O)c2ccn(Cc3cccc(Cl)c3)n2)C[C@@H]1O : 9.15
6) NS(=O)(=O)OC[C@H]1C[C@@H](Nc2ncncc2C(=O)c2ccn(Cc3ccccc3)n2)[C@H](F)[C@@H]1O : 8.42

Next molecule, pIC50 to be filled in.
In: Please look at this molecule and report its pIC50: NS(=O)(=O)OC[C@H]1C[C@@H](Nc2ncncc2C(=O)c2cc(C3OCCc4ccc(Cl)cc43)c(Cl)s2)C[C@@H]1O (some centres not stated)
Out: 9.00

----------
Reported IC50 is given for each of the following molecules.
Molecular target: NEDD8 activating enzyme (Homo sapiens, UniProt Q8TBC4)
Sequence (Q8TBC4 whole entry): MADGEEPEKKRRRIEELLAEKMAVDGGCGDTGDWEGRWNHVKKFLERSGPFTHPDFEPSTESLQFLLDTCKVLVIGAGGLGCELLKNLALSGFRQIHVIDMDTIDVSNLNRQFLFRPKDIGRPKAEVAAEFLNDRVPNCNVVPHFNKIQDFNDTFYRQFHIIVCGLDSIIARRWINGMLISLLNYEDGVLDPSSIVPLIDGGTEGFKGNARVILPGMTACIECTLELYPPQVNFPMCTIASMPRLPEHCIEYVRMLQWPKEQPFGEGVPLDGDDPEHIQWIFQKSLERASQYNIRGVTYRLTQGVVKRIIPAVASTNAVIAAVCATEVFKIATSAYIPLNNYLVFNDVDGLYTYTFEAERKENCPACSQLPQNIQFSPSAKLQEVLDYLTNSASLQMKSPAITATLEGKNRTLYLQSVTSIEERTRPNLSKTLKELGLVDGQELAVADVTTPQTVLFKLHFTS
Sequence (Q13564 whole entry): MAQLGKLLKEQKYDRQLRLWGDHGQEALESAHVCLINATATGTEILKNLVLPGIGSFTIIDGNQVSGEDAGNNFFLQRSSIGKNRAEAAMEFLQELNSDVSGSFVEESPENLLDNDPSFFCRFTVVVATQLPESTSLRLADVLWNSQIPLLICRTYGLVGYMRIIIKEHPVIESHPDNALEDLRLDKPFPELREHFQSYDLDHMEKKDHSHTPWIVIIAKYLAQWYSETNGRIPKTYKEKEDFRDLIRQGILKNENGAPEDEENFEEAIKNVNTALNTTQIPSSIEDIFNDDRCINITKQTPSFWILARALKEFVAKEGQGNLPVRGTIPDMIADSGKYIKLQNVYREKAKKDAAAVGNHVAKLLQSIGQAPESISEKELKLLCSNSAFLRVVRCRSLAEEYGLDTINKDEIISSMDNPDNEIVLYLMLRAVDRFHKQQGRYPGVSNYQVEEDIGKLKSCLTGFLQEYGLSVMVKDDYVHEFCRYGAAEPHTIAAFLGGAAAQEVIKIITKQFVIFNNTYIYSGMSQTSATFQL
Experiment: Inhibition of recombinant NAE (unknown origin) in presence of ATP at Km concentration by HTRF assay
Type: protein-complex assay

Completed entries (count: 5):
1) NS(=O)(=O)OC[C@H]1C[C@@H](Nc2ncncc2C(=O)c2ccn(Cc3ccc(Cl)o3)n2)C[C@@H]1O : 435 nM
2) NS(=O)(=O)OC[C@H]1C[C@@H](Nc2ncncc2C(=O)c2ccn(Cc3cccc(Cl)c3)n2)C[C@@H]1O : 242 nM
3) NS(=O)(=O)OC[C@H]1C[C@@H](Nc2ncncc2C(=O)c2cc(C3OCCc4ccc(Cl)cc43)c(Cl)s2)C[C@@H]1O (stereo partly drawn) : > 1000 nM
4) NS(=O)(=O)OC[C@H]1C[C@@H](Nc2ncncc2C(=O)c2csc(Cc3cccc(Br)c3)c2)C[C@@H]1O : 523 nM
5) NS(=O)(=O)OC[C@H]1C[C@@H](Nc2ncncc2C(=O)c2ccn(Cc3cccc(Br)c3)c2)C[C@@H]1O : 10 nM

In: Please look at this molecule and report its IC50: NS(=O)(=O)OC[C@H]1C[C@@H](Nc2ncncc2C(=O)c2cc(C3NCc4ccc(Cl)cc43)cs2)C[C@@H]1O (stereo partly drawn)
Out: > 1000 nM

In: Please look at this molecule and report its IC50: Cc1sc(C(=O)c2cncnc2N[C@@H]2C[C@H](COS(N)(=O)=O)[C@@H](O)C2)cc1C1OCCc2ccccc21 (stereo partly drawn)
Out: 102 nM

In: Please look at this molecule and report its IC50: NS(=O)(=O)OC[C@H]1C[C@@H](Nc2ncncc2C(=O)c2ccn(Cc3ccc(Cl)s3)n2)C[C@@H]1O
Out: 353 nM
